Source listed as patent US12447153B2.

# STUDY_TARGET: ErbB2 with Exon 20 YVMA insertion (HER2-YVMA) (Homo sapiens (Human), UniProt P04626, INS775YVMA)
# MEASUREMENT_PROTOCOL: Cellular Phosphorylation Assay, Assay 4 (constitutive ErbB2 phosphorylation, NIH 3T3 cells)
# Type: cell-based
# CONDITION_LABEL: ErbB2 YVMA phosphorylation
pIC50: −log10 of the molar value.
ENDPOINT_NAME: pIC50

C=CC(=O)N1CCC(N(C)c2ccc3ncnc(Nc4ccc(Oc5ccn6ncnc6c5)c(C)c4F)c3n2)CC1 [Example 32] :: 6.88

I: C=CC(=O)N1CCN(c2ccc3ncnc(Nc4cc(C)c(Oc5ccn6ncnc6c5)cc4F)c3n2)C[C@H]1CC [Example 164]
II: C=CC(=O)N1CCC(Oc2ccc3ncnc(Nc4ccc(Oc5cc6nn(C)cc6cn5)c(C)c4)c3n2)CC1 [Example 52]
Q: Returns: the argument ( I or II ) having the larger pIC50. // respond with label for picked entry
Result: I
(I: 7.83, II: 7.46)

----------
# STUDY_TARGET: ErbB2 WT (Homo sapiens (Human))
# MEASUREMENT_PROTOCOL: ErbB Enzyme Assay (HTRF KinEASE-TK), Assay 2
# Format: biochemical
# CONDITION_LABEL: ErbB2 WT enzyme assay
ENDPOINT_NAME: IC50 (nM)

C=CC(=O)N1CCCC(c2ccc3ncnc(Nc4cc(C)c(Oc5ccn6ncnc6c5)cc4F)c3n2)CC1 (stereo not shown) [Example 368] :: 76.1
C=CC(=O)N1C[C@@H]2C[C@H](c3ccc4ncnc(Nc5cc(C)c(Oc6ccc7c(c6)ncn7C)cc5F)c4n3)C[C@H]1C2 [Example 388] :: 40.7
C=CC(=O)N1CCCN(c2ccc3ncnc(Nc4ccc(Oc5ccn6ncnc6c5)c(C)c4F)c3n2)CC1(C)C [Example 259] :: 20.4
C=CC(=O)N1CCN(c2ccc3ncnc(Nc4cc(C)c(Oc5cnc6c(c5)ncn6C)cc4F)c3n2)CC12CC2 [Example 354] :: 31.6
C=CC(=O)N1CC2CCC(C1)N2c1ccc2ncnc(Nc3ccc(Oc4ccn5ncnc5c4)c(C)c3F)c2n1 [Example 455] :: 4.1

1: C=CC(=O)N1C[C@H]2CC[C@@H]1CN2c1ccc2ncnc(Nc3cc(C)c(Oc4cnc5c(c4)ncn5C)cc3F)c2n1 [Example 367]
2: C=CC(=O)N1CCC12CN(c1ccc3ncnc(Nc4ccc(Oc5ccn6ncnc6c5)c(Cl)c4F)c3n1)C2 [Example 360]
Q: Returns: the argument ( 1 or 2 ) having the larger IC50. // respond with label for picked entry
Result: 1

----------
# STUDY_TARGET: EGFR (Homo sapiens (Human))
# Sequence (P00533 25-1210): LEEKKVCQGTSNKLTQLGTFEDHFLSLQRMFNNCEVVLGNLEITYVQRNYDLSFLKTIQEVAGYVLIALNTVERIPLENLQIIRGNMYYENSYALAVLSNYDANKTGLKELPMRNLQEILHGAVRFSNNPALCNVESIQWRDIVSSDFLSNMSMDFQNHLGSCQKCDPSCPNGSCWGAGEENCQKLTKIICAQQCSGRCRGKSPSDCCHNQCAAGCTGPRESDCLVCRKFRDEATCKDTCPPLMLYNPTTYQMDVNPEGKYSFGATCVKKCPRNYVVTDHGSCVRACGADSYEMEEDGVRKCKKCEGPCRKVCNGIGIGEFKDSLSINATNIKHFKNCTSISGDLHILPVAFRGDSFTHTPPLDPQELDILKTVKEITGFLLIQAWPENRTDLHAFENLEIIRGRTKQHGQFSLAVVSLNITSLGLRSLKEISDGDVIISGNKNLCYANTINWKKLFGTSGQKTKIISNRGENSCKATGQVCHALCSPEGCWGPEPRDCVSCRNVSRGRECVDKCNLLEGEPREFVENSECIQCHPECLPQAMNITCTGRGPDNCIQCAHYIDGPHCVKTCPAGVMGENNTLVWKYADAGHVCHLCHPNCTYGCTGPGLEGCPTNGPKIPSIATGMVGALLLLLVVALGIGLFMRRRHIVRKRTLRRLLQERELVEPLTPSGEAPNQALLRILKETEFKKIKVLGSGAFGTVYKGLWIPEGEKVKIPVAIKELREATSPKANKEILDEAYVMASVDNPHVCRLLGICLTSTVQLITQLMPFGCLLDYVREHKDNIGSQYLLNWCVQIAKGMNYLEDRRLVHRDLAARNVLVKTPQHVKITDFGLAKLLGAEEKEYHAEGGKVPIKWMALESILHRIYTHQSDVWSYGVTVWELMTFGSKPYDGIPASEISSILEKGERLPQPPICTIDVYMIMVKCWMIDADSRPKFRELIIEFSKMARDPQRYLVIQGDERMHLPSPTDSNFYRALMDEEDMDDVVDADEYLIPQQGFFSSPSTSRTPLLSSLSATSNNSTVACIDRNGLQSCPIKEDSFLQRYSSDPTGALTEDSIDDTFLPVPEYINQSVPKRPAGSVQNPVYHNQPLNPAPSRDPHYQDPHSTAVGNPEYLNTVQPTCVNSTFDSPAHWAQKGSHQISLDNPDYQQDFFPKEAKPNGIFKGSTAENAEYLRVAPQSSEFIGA
# MEASUREMENT_PROTOCOL: ErbB Enzyme Assay (HTRF KinEASE-TK), Assay 3
# Format: biochemical
# CONDITION_LABEL: EGFR enzyme assay
# Method: The kinases were incubated with 250 nM TK-substrate biotin (CisBio, part of cat #62TKOPEC) at 1 mM ATP along with test compounds in a buffer consisting of 25 mM HEPES, pH 7.4, 10 mM MgCl2, 0.01% Triton X-100, and 2% DMSO in a volume of 8 μL. […] After 30-minute incubation at 22° C., the reaction was quenched by adding 8 μL of quench solution containing 62.5 nM Sa-XL665 and 0.25×TK-Ab-Cryptate in HTRF detection buffer (all from CisBio, part of cat #62TKOPEC). […]
pIC50: −log10 of the molar value.
ENDPOINT_NAME: pIC50

C=CC(=O)N1[C@@H]2CCC[C@H]1[C@@H](c1ccc3ncnc(Nc4ccc(Oc5ccn6ncnc6c5)c(C)c4F)c3n1)C2 :: 6.61
C=CC(=O)N1C[C@H]2C[C@@H]1[C@H](c1ccc3ncnc(Nc4cc(C)c(Oc5ccc6c(c5)ncn6C)cc4F)c3n1)C2 :: 5.57
C=CC(=O)N1C2CCC1CN(c1ccc3ncnc(Nc4ccc(Oc5ccc6c(c5)ncn6C)c(C)c4F)c3n1)C2 :: 6.15

P: C=CC(=O)N1CCN(c2ccc3ncnc(Nc4cc(C)c(Oc5ccn6ncnc6c5)cc4F)c3n2)C[C@@H]1C(F)F (racemic)
Q: C=CC(=O)N1CCN(c2ccc3ncnc(Nc4cc(C)c(Oc5ccc6c(c5)ncn6C)cc4F)c3n2)C[C@@H]1C1CC1
Q: Given the two records P and Q , choose the one whose pIC50 value is lower. // respond with label for picked entry
Result: Q

----------
# STUDY_TARGET: EGFR wild type (EGFR WT) (Homo sapiens (Human), UniProt P00533)
# Sequence (P00533 25-1210): as above
# MEASUREMENT_PROTOCOL: Cellular Phosphorylation Assay, Assay 5 (EGF-stimulated EGFR phosphorylation, NIH 3T3 cells)
# Assay type: cell-based
# CONDITION_LABEL: EGF-stimulated EGFR WT phosphorylation
# Method: NIH 3T3 cells were engineered to express ErbB2 with Exon 20 YVMA insertion (HER2-YVMA (SEQ ID NO: 2); Assay 4) or EGFR wild type (EGFR WT; Assay 5) with constructs obtained from GenScript and grown in DMEM supplemented with 10% fetal bovine serum and 15 μg/ml blasticidin. […] Serially diluted compounds were added to the plates for 1 hour at 37° C./5% CO2. EGFR WT cells were stimulated with 100 ng/ml rEGF for an additional 10 minutes at 37° C./5% CO2. […]
ENDPOINT_NAME: IC50 (nM)

Below, 2 molecules whose answers are already recorded.
C=CC(=O)N1CC(Sc2ccc3ncnc(Nc4ccc(Oc5ccn6ncnc6c5)c(C)c4F)c3n2)C1 [Example 63] :: 426
C=CC(=O)N1CCCN(c2nc3c(Nc4ccc(Oc5ccn6ncnc6c5)c(Cl)c4F)ncnc3cc2OC)CC1 [Example 153] :: 1790

P: C=CC(=O)N1CCC(Oc2nc3c(Nc4ccc(Oc5ccc6cn(C)nc6c5)c(C)c4)ncnc3cc2OC)CC1 [Example 157]
Q: C=CC(=O)N1CC[C@@H]2C[C@H]1CN2c1ccc2ncnc(Nc3ccc(Oc4ccn5ncnc5c4)c(C)c3F)c2n1 [Example 65]
R: C=CC(=O)N1CCC(Oc2ccc3ncnc(Nc4ccc(Oc5ccc6cn(C)nc6c5)c(Cl)c4F)c3n2)CC1 [Example 9]
Q: Please rank these molecules by IC50 in descending order. Answer with the labels in sequence, matching the requested order.
Result: P, R, Q

----------
# STUDY_TARGET: UniProtKB P00533
# MEASUREMENT_PROTOCOL: ErbB Enzyme Assay (HTRF KinEASE-TK), Assay 3
# Assay type: biochemical
# CONDITION_LABEL: EGFR enzyme assay
ENDPOINT_NAME: IC50 (µM)

A: C=CC(=O)N1C[C@H]2CC[C@@H]1C[C@H]2c1ccc2ncnc(Nc3ccc(Oc4cnc5c(c4)ncn5C)c(C)c3F)c2n1 [Example 423]
B: C=CC(=O)N1C[C@H]2CC[C@H](c3ccc4ncnc(Nc5cc(C)c(Oc6ccn7ncnc7c6)cc5F)c4n3)[C@H]2C1 [Example 410]
Q: Given the two records A and B , choose the one whose IC50 value is lower. // respond with label for picked entry
Result: A
(A: 2.55 µM, B: 3.67 µM)

----------
# STUDY_TARGET: ErbB2 WT (Homo sapiens (Human), UniProt P04626)
# Sequence (P04626 23-1255): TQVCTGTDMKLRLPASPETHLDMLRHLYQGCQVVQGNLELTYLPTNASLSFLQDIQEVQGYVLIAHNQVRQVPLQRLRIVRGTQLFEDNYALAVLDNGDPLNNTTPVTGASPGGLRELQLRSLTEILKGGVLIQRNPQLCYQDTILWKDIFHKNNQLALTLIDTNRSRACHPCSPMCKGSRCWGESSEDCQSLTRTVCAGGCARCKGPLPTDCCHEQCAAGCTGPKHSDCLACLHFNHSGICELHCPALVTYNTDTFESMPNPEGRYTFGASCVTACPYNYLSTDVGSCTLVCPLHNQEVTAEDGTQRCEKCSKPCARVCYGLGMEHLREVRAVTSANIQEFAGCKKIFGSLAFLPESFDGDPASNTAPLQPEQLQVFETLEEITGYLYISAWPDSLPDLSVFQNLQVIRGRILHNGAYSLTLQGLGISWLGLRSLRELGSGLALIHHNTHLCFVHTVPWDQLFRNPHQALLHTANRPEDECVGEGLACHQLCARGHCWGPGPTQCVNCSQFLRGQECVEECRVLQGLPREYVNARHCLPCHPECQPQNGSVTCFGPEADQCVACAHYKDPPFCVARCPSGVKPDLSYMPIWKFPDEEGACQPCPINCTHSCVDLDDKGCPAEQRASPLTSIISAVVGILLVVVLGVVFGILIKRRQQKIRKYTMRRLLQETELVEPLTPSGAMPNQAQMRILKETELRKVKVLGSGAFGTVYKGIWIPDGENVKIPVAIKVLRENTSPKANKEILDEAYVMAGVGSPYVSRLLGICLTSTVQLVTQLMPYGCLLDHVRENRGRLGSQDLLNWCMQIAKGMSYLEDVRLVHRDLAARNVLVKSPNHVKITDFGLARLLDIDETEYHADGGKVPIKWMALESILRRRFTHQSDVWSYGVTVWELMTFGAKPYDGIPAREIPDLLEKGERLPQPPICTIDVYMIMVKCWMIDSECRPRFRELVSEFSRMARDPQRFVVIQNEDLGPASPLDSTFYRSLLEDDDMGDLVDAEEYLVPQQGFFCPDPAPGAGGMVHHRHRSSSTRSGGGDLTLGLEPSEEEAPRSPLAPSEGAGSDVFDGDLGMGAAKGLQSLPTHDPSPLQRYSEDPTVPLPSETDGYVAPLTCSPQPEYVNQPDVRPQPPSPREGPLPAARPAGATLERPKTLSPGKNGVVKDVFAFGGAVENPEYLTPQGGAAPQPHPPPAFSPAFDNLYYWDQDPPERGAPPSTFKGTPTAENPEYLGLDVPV
# MEASUREMENT_PROTOCOL: ErbB Enzyme Assay (HTRF KinEASE-TK), Assay 2
# Format: biochemical
# CONDITION_LABEL: ErbB2 WT enzyme
ENDPOINT_NAME: IC50 (nM)

Below, 5 compounds whose answers are already recorded.
C=CC(=O)N1C2COCC1CC(c1ccc3ncnc(Nc4ccc(Oc5ccc6c(c5)ncn6C)c(C)c4F)c3n1)C2 (centres unmarked) [Example 161] :: 19.9
C=CC(=O)N1CCC2CN(c3nc4c(Nc5ccc(Oc6ccn7ncnc7c6)c(Cl)c5F)ncnc4cc3OC)CC21 (centres unmarked) [Example 38] :: 8.5
C=CC(=O)N1C[C@@H]2C[C@H]1CN2c1ccc2ncnc(Nc3ccc(Oc4ccc5c(c4)ncn5C)c(C)c3F)c2n1 [Example 84] :: 41
C=CC(=O)N1CCC(c2ccc3ncnc(Nc4ccc(Oc5ccc6c(c5)ncn6C)c(C)c4)c3n2)CC1 [Example 34] :: 28.7
CC#CC(=O)N1CC[C@@H]2C[C@H]1CN2c1ccc2ncnc(Nc3ccc(Oc4ccn5ncnc5c4)c(C)c3F)c2n1 [Example 176] :: 48.5

A: C=CC(=O)N1CCCC(c2ccc3ncnc(Nc4ccc(Oc5ccn6ncnc6c5)c(C)c4F)c3n2)C1 (centres unmarked) [Example 198]
B: C=CC(=O)N1CCCC(c2ccc3ncnc(Nc4ccc(Oc5ccn6ncnc6c5)c(C)c4F)c3n2)CC1 (centres unmarked) [Example 189]
Q: Returns: the argument ( A or B ) having the larger IC50. // respond with label for picked entry
Result: A

----------
# STUDY_TARGET: BCRP (Homo sapiens (Human), UniProt Q9UNQ0)
# Sequence (Q9UNQ0 whole entry): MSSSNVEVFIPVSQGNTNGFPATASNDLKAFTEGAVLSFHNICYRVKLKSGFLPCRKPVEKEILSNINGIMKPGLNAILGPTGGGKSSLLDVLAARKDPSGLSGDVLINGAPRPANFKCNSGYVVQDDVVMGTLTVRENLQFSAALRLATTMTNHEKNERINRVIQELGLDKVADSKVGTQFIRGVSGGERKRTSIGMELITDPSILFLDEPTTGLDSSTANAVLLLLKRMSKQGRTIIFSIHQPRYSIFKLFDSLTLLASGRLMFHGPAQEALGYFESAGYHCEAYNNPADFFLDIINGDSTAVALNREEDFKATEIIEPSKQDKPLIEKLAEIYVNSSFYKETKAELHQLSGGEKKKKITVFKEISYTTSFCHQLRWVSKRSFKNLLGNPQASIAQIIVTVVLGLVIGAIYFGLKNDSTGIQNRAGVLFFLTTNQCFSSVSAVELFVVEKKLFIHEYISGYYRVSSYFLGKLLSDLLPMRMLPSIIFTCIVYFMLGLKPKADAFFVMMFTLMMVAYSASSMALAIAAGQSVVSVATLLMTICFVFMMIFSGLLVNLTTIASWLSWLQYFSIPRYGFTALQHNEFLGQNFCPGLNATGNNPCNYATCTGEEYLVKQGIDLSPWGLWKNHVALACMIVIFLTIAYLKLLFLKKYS
# MEASUREMENT_PROTOCOL: BCRP MDCKII efflux assay (Assay 7)
# Type: in vitro ADME
# CONDITION_LABEL: dog; efflux ratio Papp(B-A)/Papp(A-B), BCRP MDCKII cells; read-out: Assay 7 Pe Ratio
ENDPOINT_NAME: efflux ratio at 2 h, 1 µM

1: C=CC(=O)N1C[C@@H]2C[C@H]1CN(c1ccc3ncnc(Nc4cc(Cl)c(Oc5ccc6c(c5)ncn6C)cc4F)c3n1)C2 [Example 248]
2: C=CC(=O)N1CCC(Sc2ccc3ncnc(Nc4cc(C)c(Oc5ccc6c(c5)ncn6C)cc4F)c3n2)CC1 [Example 64]
3: C=CC(=O)N1CCN(c2ccc3ncnc(Nc4ccc(Oc5cnc6c(c5)ncn6C)c(C)c4F)c3n2)CC1(C)C [Example 247]
4: C=CC(=O)N1CCN(c2ccc3ncnc(Nc4cc(C)c(Oc5ccc6c(c5)ncn6C)cc4F)c3n2)C[C@@H]1C1CC1 [Example 252]
5: C=CC(=O)N1CC[C@@H](c2ccc3ncnc(Nc4ccc(Oc5ccc6c(c5)ncn6C)c(C)c4F)c3n2)C1 (racemic) [Example 131]
Q: Quick favor: sort the compounds up above by efflux ratio at 2 h, 1 µM, largest first. Answer with the labels in sequence, matching the requested order.
Result: 1, 5, 2, 4, 3
